B1: CPEB3 Ribozyme (parent)
chain: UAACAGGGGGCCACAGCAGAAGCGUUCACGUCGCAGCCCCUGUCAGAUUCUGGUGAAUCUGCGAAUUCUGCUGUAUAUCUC

- Variants of: B1
- Assay Details: self-cleavage, relative activity (ratio to wild type); higher = more cleavage; in vitro, sequencing
Readout Type: self-cleavage

G6A U80A | 0.53
A5U U26C | 0.72
G7C U31C | 0.41
U1C G24C | 0.31
G9U C62U | 0.13
C32U U51G | 0.22
C39A U41C | 0.35
G7U U51G | 0.2
C50U U54C | 0.77
C38A U54A | 0.56
U69C C79G | 0.72
A15G U69G | 0.32
U67A U80C | 0.58
A2G U76C | 0.73
A35G A77G | 1.39
A28C U74C | 0.7
A5U A28U | 1.12
U67A U74C | 0.92
G6A U51C | 0.49
C59A G70U | 0.13
G33U A56U | 0.42
A15C A56G | 0.68
A13U G73A | 1.23
U74C A75U | 1.26
A57G U60C | 0.42
G42A G55U | 0.08
C38A U69A | 0.19
U26A A56C | 0.49
A3U C17G | 0.53
U25G U78C | 0.15
U60A U72G | 0.61
A3G C17G | 0.55
U49G C79U | 0.77
C12A U67A | 0.69
C27U A56U | 0.21
U49A G53A | 0.79
A20G U74A | 1.19
U43A U58G | 0.31
U60C A65U | 0.27
C14U U43A | 1.18
A28C A64G | 0.52
A47U C79U | 0.52
U54A A65C | 0.29
C23G A77U | 0.36
G19A U78A | 0.47
